test: Qualitative solubility determination of Nor-UDCA with 20 solvents; format: physicochemical; details: organic solvent or mixture, thermodynamic from solid; solvent Acetonitrile
PROPERTY MEASURED: solubility

Record request: solubility value, item CC(CC(=O)O)[C@H]1CCC2[C@H]3C(CC[C@@]21C)[C@@]1(C)CCC(O)C[C@H]1C[C@@H]3O (stereo partly shown) [Nor-UDCA]
< 13 mg/mL

----------
assay: Qualitative solubility determination of Nor-UDCA with 20 solvents; format: physicochemical; settings: organic solvent or mixture, thermodynamic from solid; solvent Nitromethane
PROPERTY MEASURED: solubility

Record request: solubility value, item CC(CC(=O)O)[C@H]1CCC2[C@H]3C(CC[C@@]21C)[C@@]1(C)CCC(O)C[C@H]1C[C@@H]3O (stereo partly shown) [Nor-UDCA]
< 13 mg/mL

----------
assay: Qualitative solubility determination of Nor-UDCA with 20 solvents; format: physicochemical; settings: organic solvent or mixture, thermodynamic from solid; solvent 2,2,2-Trifluoroethanol
PROPERTY MEASURED: solubility (mg/mL)
Write the number in mg/mL without appending the unit.

Record request: solubility value, item CC(CC(=O)O)[C@H]1CCC2[C@H]3C(CC[C@@]21C)[C@@]1(C)CCC(O)C[C@H]1C[C@@H]3O (stereo partly shown)
21

----------
test: Qualitative solubility determination of Nor-UDCA with 20 solvents; assay type: physicochemical; conditions: tetrahydrofuran, organic solvent or mixture, thermodynamic from solid; solvent Tetrhydrofurane
PROPERTY MEASURED: solubility (mg/mL)
Write the number in mg/mL without appending the unit.

Record request: solubility value, item CC(CC(=O)O)[C@H]1CCC2[C@H]3C(CC[C@@]21C)[C@@]1(C)CCC(O)C[C@H]1C[C@@H]3O (stereo partly shown) [Nor-UDCA]
41

----------
Experiment: Qualitative solubility determination of Nor-UDCA with 20 solvents
Format: physicochemical
Conditions: organic solvent or mixture, thermodynamic from solid; solvent Pentane
Experimental: The polymorph screening study was carried out in two phases. In Phase 1, the synthesized Nor-UDCA, designated Form A, was characterised by XRPD, digital imaging, thermal analysis (DSC and TGMS). The purity of the material was checked by HPLC/RI. […] Additionally, the solids recovered by evaporation of solutions used in the solubility experiments were analyzed by XRPD and digital imaging to obtain information on the potential form formation of new forms of Nor-UDCA (see Table 2). […]
PROPERTY MEASURED: solubility

Record request: solubility value, item CC(CC(=O)O)[C@H]1CCC2[C@H]3C(CC[C@@]21C)[C@@]1(C)CCC(O)C[C@H]1C[C@@H]3O (stereo partly shown)
< 13 mg/mL

----------
experiment: Qualitative solubility determination of Nor-UDCA with 20 solvents; assay type: physicochemical; settings: tert-butyl methyl ether, organic solvent or mixture, thermodynamic from solid; solvent Tert-butylmethylether
PROPERTY MEASURED: solubility

Record request: solubility value, item CC(CC(=O)O)[C@H]1CCC2[C@H]3C(CC[C@@]21C)[C@@]1(C)CCC(O)C[C@H]1C[C@@H]3O (stereo partly shown)
< 13 mg/mL

----------
experiment: Qualitative solubility determination of Nor-UDCA with 20 solvents; type: physicochemical; conditions: organic solvent or mixture, thermodynamic from solid; solvent 1,4-Dioxane
PROPERTY MEASURED: solubility (mg/mL)
Write the number in mg/mL without appending the unit.

Record request: solubility value, item CC(CC(=O)O)[C@H]1CCC2[C@H]3C(CC[C@@]21C)[C@@]1(C)CCC(O)C[C@H]1C[C@@H]3O (stereo partly shown)
21
